assay: solvent given as SMILES; settings: in CO
We begin with a simple list: items and their reported solvation free energy, 298 K.
Please state the value followed by its unit.

| COMPOUND | READOUT VALUE |
| --- | --- |
| CCCCCO | -6.84 kcal/mol |

## Input Supply reported solvation free energy, 298 K belonging to this compound: CN1C(=O)C(O)N=C(c2ccccc2)c2cc(Cl)ccc21 (stereo not drawn)
## Output -19.1 kcal/mol

## Input Look up solvation free energy, 298 K of Clc1ccccc1 and report it.
## Output -5.01 kcal/mol

* * *

test: solvent given as SMILES; settings: in O
Mark True for reported solvation free energy, 298 K of -8 kJ/mol or greater; mark False for anything smaller.

| COMPOUND | CLASS ASSIGNMENT |
| --- | --- |
| CC(C)OC(C)(C)C | True |

## Input Form field: solvation free energy, 298 K at least -8 kJ/mol? Entry: CC1=C(C)C2CCC1C2
## Output True

## Input Kindly determine if solvation free energy, 298 K recorded for FC(F)C(F)Oc1ccccc1 (configuration not stated) is above or exactly -8 kJ/mol.
## Output True

## Input Answer whether solvation free energy, 298 K of CCCOC(=O)c1ccccc1C(=O)OCCC is greater than or equal to -8 kJ/mol.
## Output False

## Input Please check the record Cc1cc(C)nc(NS(=O)(=O)c2ccc(N)cc2)n1 and state if its solvation free energy, 298 K is at or above -8 kJ/mol.
## Output False

## Input Test whether the compound Clc1ccc(Cl)c(-c2cc(Cl)ccc2Cl)c1 records solvation free energy, 298 K of -8 kJ/mol or higher.
## Output False

* * *

assay: solvent given as SMILES; conditions: in O
Reported values of solvation free energy, 298 K for individual entries
Response body: numeric value in kcal/mol, unit text excluded.

For orientation, consider the following solved cases.
| COMPOUND | READING UNIT | solvation free energy, 298 K |
| --- | --- | --- |
| Fc1c(F)c(F)c(F)c(F)c1F | kcal/mol | 0.1 |
| CC1=CCC2CC3C(C)CCC13C2(C)C (stereo not given) | kcal/mol | 0.78 |
| CCNc1ccccc1 | kcal/mol | -4.76 |

## Input Answer with the recorded solvation free energy, 298 K for the compound listed here: C=C(C)C1CCC(C)C(=O)C1 (stereo not given)
## Output -3.75

## Input Entry Sc1ccccc1 needs its solvation free energy, 298 K filled in; supply it.
## Output -2.55

* * *

test: solvent given as SMILES; conditions: in CC(C)CCCC(C)CCCC(C)CCCCC(C)CCCC(C)CCCC(C)C
Items are presented alongside their recorded solvation free energy, 298 K.
Answer with a number only, understood to be in kcal/mol.

| STRUCTURE AS SMILES | solvation free energy, 298 K / kcal/mol |
| --- | --- |
| CCCC=O | -3.09 |
| C1CCCC1 | -3.23 |
| CCCO | -2.6 |

## Input Determine from records and report solvation free energy, 298 K for CC=O
## Output -2.26

## Input Provide solvation free energy, 298 K value for the following compound: CC(C)CC(C)C
## Output -3.68

* * *

This section presents compounds with their documented solvation free energy, 298 K values.
test: solvent given as SMILES; conditions: in O
Express it in kcal/mol; write the number only.

Examples with answers:
| COMPOUND | solvation free energy, 298 K / kcal/mol |
| --- | --- |
| Clc1cc(-c2cc(Cl)c(Cl)c(Cl)c2Cl)c(Cl)c(Cl)c1Cl | -3.77 |
| ClCCCl | -1.79 |
| CCC(O)C(C)C (centres undefined) | -3.88 |

Please find the next compound below.
## Input Item C=CCCCCC : provide solvation free energy, 298 K
## Output 1.66

Each recorded value in this set is attributed to the CombiSolv-Exp solvation set (Vermeire and Green 2021).
